// pKi lookup, one value per entry
Target: human adenosine A2a receptors (Homo sapiens, UniProt P29274)
Sequence (P29274 whole entry): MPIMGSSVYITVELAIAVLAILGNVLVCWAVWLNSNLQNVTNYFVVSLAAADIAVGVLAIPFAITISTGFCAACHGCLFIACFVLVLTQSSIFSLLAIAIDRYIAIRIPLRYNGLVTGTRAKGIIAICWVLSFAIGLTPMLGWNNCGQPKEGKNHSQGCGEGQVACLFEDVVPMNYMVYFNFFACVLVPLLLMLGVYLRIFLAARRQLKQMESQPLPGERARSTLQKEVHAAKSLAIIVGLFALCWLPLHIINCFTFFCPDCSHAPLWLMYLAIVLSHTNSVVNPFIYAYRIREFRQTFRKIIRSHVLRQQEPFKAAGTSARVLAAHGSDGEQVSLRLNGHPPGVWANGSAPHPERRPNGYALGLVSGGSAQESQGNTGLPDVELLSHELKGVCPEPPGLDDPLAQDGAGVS
Assay: Adenosine A2a receptor cell-based functional assay (cAMP-inducible beta-galactosidase reporter)
Conditions: CHO-K1 cells overexpressing human adenosine A2a receptors; antagonist assay with 50 nM NECA
// pKi is dimensionless: -log10 of concentration (M)

Request: # input molecule: CC1CCC(C)N1Cc1ccc2c(c1)-c1nc(N)nc(-c3ccccc3)c1C2=O (centres unmarked) [B] ; wanted: its pKi
Result: 7.88

As a next step, examine the molecule that follows.
Request: # input molecule: Nc1nc(-c2ccccc2)c2c(n1)-c1cc(Cc3cccnc3)ccc1C2=O [C] ; wanted: its pKi
Result: 9.40
